System: HT29 colon
Assay: NCI tumour cell line growth inhibition, 48 h
test readout: TGI

Inquiry: Report measured TGI; entry is "O=[N+]([O-])c1nccn1CCCNCCCn1ccnc1[N+](=O)[O-]"
Reply text: > 100 µM

Inquiry: Report measured TGI; entry is "CC1=CC(C)(C)Nc2ccc(CSc3ccccc3)cc21"
Reply text: 38.2 µM

Inquiry: Report measured TGI; entry is "NC(N)=NS(=O)(=O)c1ccc(NC(=O)c2ccc3[nH]c4ccccc4c(=O)c3c2)cc1"
Reply text: > 100 µM

Inquiry: Report measured TGI; entry is "O=[N+]([O-])c1cccc2nc3ccccc3c(NCCCN3CCCCC3)c12"
Reply text: 0.326 µM

Inquiry: Report measured TGI; entry is COC(=O)C(=O)C(C(=O)C=C(C)C)C(=O)C(=O)Nc1nc2ccc([N+](=O)[O-])cc2s1 (stereo not given)
Reply text: > 100 µM

Inquiry: Report measured TGI; entry is "N#CCCN(CCC#N)c1ccc(C(N=Nc2ccc(Cl)cc2)=Nc2ccc(F)cc2)cc1"
Reply text: > 100 µM

Inquiry: Report measured TGI; entry is COC(=O)C(C(=O)C(=O)Nc1ccc(OC)cc1[N+](=O)[O-])c1nc2cc(C)c(C)cc2[nH]c1=O (stereo not given)
Reply text: > 100 µM

Inquiry: Report measured TGI; entry is "N#Cc1c(N)c(C#N)c2c(c1-c1ccc(Cl)cc1)COc1ccccc1-2"
Reply text: 40.3 µM

Inquiry: Report measured TGI; entry is "O=C(Nc1cccnc1)c1ccc2ccc3ccc(C(=O)Nc4cccnc4)nc3c2n1"
Reply text: > 100 µM

Inquiry: Report measured TGI; entry is "COc1cccc2cc(C(=O)Nc3ccccn3)c(=N)oc12"
Reply text: > 100 µM

###

So I've got a bunch of compounds here, and I need their TGI values.
Test system: NCI-H226 lung
Assay: NCI tumour cell line growth inhibition, 48 h

Inquiry: Report measured TGI; entry is BrCC(Br)(c1ccccc1)c1ccccc1-c1cc(-c2ccccc2)cc(-c2ccccc2)n1 (stereo not drawn)
Reply text: 15.1 µM

Inquiry: Report measured TGI; entry is "Nc1c(N2CCCCC2)c(=O)nc2[nH]/c(=C\c3ccccc3)c(=O)n12"
Reply text: > 100 µM

Inquiry: Report measured TGI; entry is "COC(=O)c1c(C(=O)OC)c2c3ccccc3n(C)c2c2c1c1ccccc1n2C"
Reply text: > 100 µM

Inquiry: Report measured TGI; entry is CCC1=NC(C(F)(F)F)(C(F)(F)F)N=C(/N=C(/N)N(C)C(C(C)C)P(=O)(OC(C)C)OC(C)C)O1 (stereo not drawn)
Reply text: > 100 µM

Inquiry: Report measured TGI; entry is COc1ccc2c(c1)N(CCO)C1=C(C(=O)OC1)C2c1ccccc1 (stereo not drawn)
Reply text: 19 µM

Inquiry: Report measured TGI; entry is "CC(=O)O[C@H]1C(=O)[C@@]2(C)[C@H]([C@H](OC(=O)c3ccccc3)[C@@]3(O)C[C@H](O)C(C)=C1C3(C)C)[C@]1(OC(C)=O)CO[C@@H]1C[C@@H]2O"
Reply text: > 100 µM

Inquiry: Report measured TGI; entry is "Nc1nc(N)c(N=Nc2ccc(C(=O)O)c(O)c2)c(N)n1"
Reply text: > 100 µM

Inquiry: Report measured TGI; entry is "Cc1ccc(NC(=O)CC/C(CC(=O)C(C)(C)C)=N\Nc2ccc([N+](=O)[O-])cc2[N+](=O)[O-])cc1C"
Reply text: > 100 µM

###

Test system: UACC-62 melanoma
Experiment: NCI tumour cell line growth inhibition, 48 h; in the data active = GI50 below about 0.43 µM; inactive = the rest
Where a SMILES comes first, the peptide text is derived from it. [ ]: non-standard residue; d: D form. 2Nal = N[CH](Cc1ccc2ccccc2c1)C(=O)O
API: response.call in active, inactive

Inquiry: Recorded call for "CCOC(=O)c1csc(NC(=O)COc2cccc(/C=C3\CSc4ccccc4C3=O)c2)n1" ?
Reply text: inactive

Inquiry: Recorded call for "N#Cc1c(N)nc(N2CCSCC2)c(C#N)c1-c1ccc(O)cc1" ?
Reply text: inactive

Inquiry: Recorded call for "C[C@@H]1CC[C@@H]2[C@@H](C)C[C@H]3[C@@H]4C(C)(C)OC(=O)[C@]4(C)C(=O)[C@@]23C1=O" ?
Reply text: inactive

Inquiry: Recorded call for "O=C(Nc1nc(-c2ccc(Cl)cc2)nc2c1sc(=S)n2-c1ccccc1)C(F)(F)F" ?
Reply text: inactive

Inquiry: Recorded call for "COc1ccc(/C=C\c2cc(OC)c(OC)c(OC)c2)c(O)c1O" ?
Reply text: active

Inquiry: Recorded call for CC(C)C(NC(=O)C(CCCCN)NC(=O)C(Cc1c[nH]c2ccccc12)NC(=O)C(Cc1ccc(O)cc1)NC(=O)C(CS)NC(=O)C(N)Cc1ccc2ccccc2c1)C(=O)NC(CS)C(=O)NC(C(N)=O)C(C)O (stereo not drawn) (H-[2Nal]CYWKVCT-NH2; configuration not given here) ?
Reply text: inactive

Inquiry: Recorded call for "O=C(Cn1c(C(=O)c2ccccc2)nc2ccccc21)c1ccc(F)cc1" ?
Reply text: inactive

Inquiry: Recorded call for C=C1CCC2C3(C)COC(c4ccc(Cl)cc4)OC3CCC2(C)C1/C=C/C1=CCOC1=O (stereo not drawn) ?
Reply text: inactive

###

Tested on: RPMI-8226 leukemia
Test: NCI tumour cell line growth inhibition, 48 h
test readout: TGI (µM)
Could you give me the number in µM? Just the number is fine.

Inquiry: Report measured TGI; entry is "CCCCCCCCCOC(=S)NCCCCC"
Reply text: 40

Inquiry: Report measured TGI; entry is "CC[C@@H](/C=C\CCC1(C[C@@H](N)CCC=C(C)C)OCCO1)O[Si](C(C)C)(C(C)C)C(C)C"
Reply text: 38

Inquiry: Report measured TGI; entry is "N#Cc1cc(NC(=O)c2ccccc2)c(=O)n2c1[nH]c1ccccc12"
Reply text: 38.3

Inquiry: Report measured TGI; entry is "COC(=O)C1=C(C(=O)OC)C2OC1c1cc3ccccc3cc12"
Reply text: 5.41

Inquiry: Report measured TGI; entry is CC(=O)C1CCC2C3CC=C4CC(SC(=N)N)CCC4(C)C3CCC12C (centres undefined)
Reply text: 3.33

Inquiry: Report measured TGI; entry is "CCCN1C(=O)/C(=C/c2ccc(O)cc2)SC1=Nc1ccc(OC)cc1"
Reply text: 42

Inquiry: Report measured TGI; entry is "C=CCc1cccc(/C=N\N=C(/N)NO)c1O"
Reply text: 14.6

Inquiry: Report measured TGI; entry is C/C=C(/C)C(=O)OC1C=C(CO)C(=O)C(OC(=O)C(C)(O)C(C)Cl)C1C(C)C (centres undefined)
Reply text: 2.65

###

System: A549 NSCLC
Test: NCI tumour cell line growth inhibition, 48 h; in the data active means GI50 below about 0.43 µM; inactive means the rest
API: response.call in 1.0 = active, 0.0 = inactive

Inquiry: Recorded call for "CC[C@]12C=CCN3CC[C@@]4(c5ccc(OC)cc5N(C)[C@H]4[C@@](O)(C(=O)OC)[C@@H]1OC(=O)CCC(=O)N[C@H](Cc1c[nH]c4ccccc14)C(=O)OC)[C@@H]32" ?
Reply text: 0.0

Inquiry: Recorded call for "O=C(Nc1cccnc1)c1ccc2ccc3ccc(C(=O)Nc4cccnc4)nc3c2n1" ?
Reply text: 1.0

Inquiry: Recorded call for "Cc1nnc(-c2ccc(C)c(-c3ccc(C(=O)NCc4ccc(Cl)cc4)cc3)c2)o1" ?
Reply text: 0.0

Inquiry: Recorded call for "O=C(Nc1nc(-c2ccc(Cl)cc2)nc2c1sc(=S)n2-c1ccccc1)C(F)(F)F" ?
Reply text: 0.0

Inquiry: Recorded call for "CN1CCN(Cc2ccc(NC(=O)c3cncc(C#Cc4cnn5ccccc45)c3)cc2C(F)(F)F)CC1" ?
Reply text: 0.0

Inquiry: Recorded call for "N#Cc1c(N)nc(N2CCSCC2)c(C#N)c1-c1ccc(O)cc1" ?
Reply text: 0.0

Inquiry: Recorded call for O=C(NN1C(=O)CSC12CCCC2)C(O)c1ccccc1 (configuration not stated) ?
Reply text: 0.0

###

So I've got a bunch of compounds here, and I need their TGI values.
System: SNB-75 CNS
Assay: NCI tumour cell line growth inhibition, 48 h

Inquiry: Report measured TGI; entry is "Cc1cc(C)nc(NS(=O)(=O)c2ccc(NC(=O)c3ccc(Cl)c4c(Nc5ccc(S(=O)(=O)N=C(N)N)cc5)c5ccccc5nc34)cc2)n1"
Reply text: > 100 µM

Inquiry: Report measured TGI; entry is "COc1ccccc1NC(=S)Nc1cc(C)ccn1"
Reply text: > 100 µM

Inquiry: Report measured TGI; entry is C=C1C(=O)OC2C1C(OC(=O)/C(C)=C\C)CC1(CO1)C1C(O)C=C(C)C21O (stereo not drawn)
Reply text: 29.2 µM

Inquiry: Report measured TGI; entry is "CC[C@]12C=CCN3CC[C@@]4(c5ccc(OC)cc5N(C)[C@H]4[C@@](O)(C(=O)OC)[C@@H]1OC(=O)CCC(=O)N[C@H](Cc1c[nH]c4ccccc14)C(=O)OC)[C@@H]32"
Reply text: 14.1 µM

Inquiry: Report measured TGI; entry is "CCOC(=O)N1[C@@H]2CCC[C@@H]2C(=O)[C@@H]2CCC[C@@H]21"
Reply text: > 100 µM

Inquiry: Report measured TGI; entry is "CN(C)CCCNC(=O)c1cc(NC(=O)c2cc(NC(=O)[C@@H]3C[C@H]3C(=O)Nc3cc(C(=O)Nc4cc(C(=O)NCCCN(C)C)n(C)c4)n(C)c3)cn2C)cn1C"
Reply text: > 100 µM

Inquiry: Report measured TGI; entry is "O=C(O)Cn1c2c(c3c(O)cccc31)C(=O)c1ccccc1-2"
Reply text: > 100 µM

Inquiry: Report measured TGI; entry is "O=C(Nc1cccnc1)c1ccc2ccc3ccc(C(=O)Nc4cccnc4)nc3c2n1"
Reply text: > 100 µM

Inquiry: Report measured TGI; entry is "O=C1CN(c2ccc(Cl)cc2)C(=O)CN1NCNN1CC(=O)N(c2ccc(Cl)cc2)CC1=O"
Reply text: > 100 µM

Inquiry: Report measured TGI; entry is C=C1CC(CN2CCC(=O)NC2=O)(c2ccccc2)OC1=O (stereo not drawn)
Reply text: 32.3 µM

Inquiry: Report measured TGI; entry is "O=C1C(Cl)=C(N2CCN(c3ccccn3)CC2)C(=O)c2ncccc21"
Reply text: 19.8 µM

Inquiry: Report measured TGI; entry is "O=C(NNC(=S)NCc1ccccc1)C12CC3CC(CC(C3)C1)C2"
Reply text: > 100 µM

Inquiry: Report measured TGI; entry is O=C(NN1C(=O)CSC12CCCC2)C(O)c1ccccc1 (stereo not drawn)
Reply text: > 100 µM

Inquiry: Report measured TGI; entry is "Oc1cc(CN2COc3ccccc32)c(O)cc1CNC1CCCCC1"
Reply text: 38.9 µM

Inquiry: Report measured TGI; entry is COC(=O)C(=O)C(C(=O)C=C(C)C)C(=O)C(=O)Nc1nc2ccc([N+](=O)[O-])cc2s1 (stereo not drawn)
Reply text: 63.7 µM

Inquiry: Report measured TGI; entry is CCOc1c(C#N)c2c(N)ncnc2n1C1OC(CO)C(O)C1O (stereo not drawn)
Reply text: > 76 µM

Inquiry: Report measured TGI; entry is "Nc1c(N2CCCCC2)c(=O)nc2[nH]/c(=C\c3ccccc3)c(=O)n12"
Reply text: > 100 µM

Inquiry: Report measured TGI; entry is COCCOCCOCCOc1ccc(C(C#N)N(CCc2ccccc2)C(=O)c2cc(C(=O)N(CCc3ccccc3)C(C#N)c3ccc(OCCOCCOCCOC)cc3)cc(C(=O)N(CCc3ccccc3)C(C#N)c3ccc(OCCOCCOCCOC)cc3)c2)cc1 (stereo not drawn)
Reply text: > 100 µM
